# Target or test system: Cytochrome P450 2C9 (Homo sapiens)
# Measurement protocol: blockers of cytochrome P450 2C9 activity – biochemical, luminescence, ADME assay, primary screen (AID 777)
# Applied conditions: CYP2C9 Supersomes, luciferin-H conversion, at 5 µM
Screen size: about 96,000 compounds; about 19,000 (20%) were called active.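 The calls were made as follows: active = blocking of liver enzyme CYP2C9 beyond about 50% at 5 µM (limit read from the data); inactive = the rest.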 A selection follows.
The reply should name one outcome from YES = active, NO = inactive

// param item: "Cc1ccccc1NC(=O)Cc1nnc(SCC(=O)N2CCN(c3ccccc3)CC2)n1C" ; yields the recorded call NO

Record request — test call for "Cc1ccc(C(=O)CSc2nnc(Cn3nnc4ccccc43)n2C)cc1" NO

Write down the call the test reported for this molecule. Item: "CC(=O)c1sc(NC(=O)c2cccc3ccccc23)nc1C" NO

State the result this test recorded for "CCn1c(Cc2ccccc2)nnc1SCC(=O)Nc1ccccc1" . NO

Kindly provide the recorded test outcome for the following molecule: "Cn1c(CC(=O)Nc2ccccc2)nnc1SCC(=O)c1ccccc1" YES

What call does the record list for "Cc1ccc(S(=O)(=O)NCc2cn3ccsc3n2)c(C)c1" ? NO

Returns: the outcome recorded for "CCCc1nc2scc(-c3ccc(C)cc3)c2c(=O)n1N" in this assay. NO

Can you look up the reported call for "CC1CCN(C(=O)CN(c2ccc(Oc3ccccc3)cc2)S(C)(=O)=O)CC1" for me? YES

What call does the record list for "CC(=O)c1sc(NC(=O)c2ccc(C)cc2)nc1C" ? NO

Status in this test for "CCCN1CCN(C(=O)Cn2ncc3ccccc32)CC1" ? NO

# lookup: test call for CC(NC(=O)c1ccc(Cl)cc1)C(=O)N1CCCCC1 (stereo unspecified) NO

----------
# Target or test system: Cytochrome P450 2C9 (Homo sapiens)
# Measurement protocol: blockers of cytochrome P450 2C9 activity – biochemical, luminescence, ADME assay, primary screen (AID 777)
# Applied conditions: CYP2C9 Supersomes, luciferin-H conversion, at 5 µM, active compounds read high
In all, about 96,000 compounds went through this assay and about 19,000 (20%) were called active. Only a sample is shown.
Where inhibition equals or exceeds 30%, the correct label is Y; where it does not, the label is N.

Kindly determine if inhibition recorded for "NC(=O)CCCC1=NS(=O)(=O)c2ccccc2N1" is above or exactly 30%. N

Is the recorded value of inhibition equal to or greater than 30% for this compound? Fc1ccc(Cn2nnnc2C(c2cccs2)N2CCCCCC2)cc1 (stereo not drawn) Y

hey, is inhibition for this one >= 30%? "CCOC(=O)c1ccc(NC(=O)Cn2nnc(-c3ccc(C)cc3)n2)cc1" Y

Does the compound CC(C)C(c1nnnn1Cc1ccccc1)N1CCC(C(N)=O)CC1 (stereo not drawn) have recorded inhibition that is 30% or more? N

Evaluate "CCOC(=O)C1CCN(C(=O)C2CCN(S(=O)(=O)CC)CC2)CC1" : inhibition at minimum 30%? N

Decide: inhibition of COc1ccc(C2Nc3ccccc3C(=O)N2Cc2ccccc2)cc1Cn1nnc2ccccc21 (stereo not drawn) >= 30%? Y

hey, is inhibition for this one >= 30%? "CCOc1cc(NC(=O)c2ccco2)c(OCC)cc1NC(=O)COc1ccccc1" N

Determine whether this compound has inhibition no lower than 30%: "CCOC(=O)C1CCN(C(=O)C2CCN(S(=O)(=O)N3CCCC3)CC2)CC1" N

Assess whether reported inhibition for "CCOC(=O)c1ccc(NC(=O)CS(=O)(=O)c2cn(CC)c3ccccc23)cc1" sits at 30% or higher. N

In plain terms: is recorded inhibition at least 30% for "COc1cccc(-n2cc(C(=O)O)c3ccccc3c2=O)c1" ? N

Quick check, inhibition >= 30%? "COc1ccc(C2=NO[C@@H]3C(=O)N(Cc4ccccc4)C(=O)[C@H]23)cc1OC" Y

Is inhibition for "O=C(/C=C/c1ccccc1)N/C(=C/c1ccccc1)C(=O)Nc1ccccc1O" at or above 30%? Y

Reported inhibition at or above 30%? N#Cc1ccc(C(c2nnnn2CCc2ccccc2)N2CCCCCC2)cc1 (stereo not drawn) N

Reported inhibition reaches at least 30% for c1ccc2c(c1)OCC(c1nn3cnnc3s1)O2 (stereo not drawn) ? N

Quick check, inhibition >= 30%? "O=C(/C=C/c1ccccc1)c1ccoc1" N

Decide: is the reported value of inhibition for "O=c1c2ccccc2nnn1CSc1nnnn1-c1ccccc1" equal to or greater than 30%? N

Please check the record "O=C(COc1ccccc1)Nc1nonc1NC(=O)COc1ccccc1" and state if its inhibition is at or above 30%. Y

Could you verify whether the entry "CCc1ccccc1NC(=O)/C(=C/c1ccccc1)c1ccccc1" shows inhibition of no less than 30%? N

inhibition >= 30% for "CCOC(=O)C1CCN(C(=O)Nc2ccc(Cl)cc2)CC1" ? Y

Does the compound "C=CCn1c(SCn2nnc3ccccc3c2=O)nnc1-c1ccc(Cl)cc1" have recorded inhibition that is 30% or more? Y

Can CC(Oc1ccc(-c2ccccc2)c(F)c1)c1ccn(S(=O)(=O)c2cccc3ccccc23)n1 (stereo not drawn) be said to have inhibition at or above 30%? Y

In plain terms: is recorded inhibition at least 30% for "COC(=O)[C@@H](NC(=O)Nc1cc(Cl)ccc1C)C(C)C" ? N

Determine whether this compound has inhibition no lower than 30%: "COc1cccc(-c2nn(C)c3sc(C(=O)N4CCN(c5ccccc5)CC4)cc23)c1" Y

----------
# Target or test system: Cytochrome P450 2C9 (Homo sapiens)
# Measurement protocol: blockers of cytochrome P450 2C9 activity – biochemical, luminescence, ADME assay, primary screen (AID 777)
# Applied conditions: CYP2C9 Supersomes, luciferin-H conversion, at 5 µM
Among all 96,000 compounds or so, about 19,000 (20%) were called active.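 Rule for the calls: active = blocking of liver enzyme CYP2C9 beyond about 50% at 5 µM (limit read from the data); inactive = the rest.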 The list is a sample of the results.
API: response.call in label 1 = active, label 0 = inactive

Dear all, I need the recorded test outcome for "CCOC(=O)N1CCN(C(=O)c2cn(C)c3ccc(S(=O)(=O)N4CCCC4)cc3c2=O)CC1" , thank you. label 0

Answer briefly: the call reported for CC12CCC(C(=O)N(CCC#N)CCC#N)(CC1=O)C2(C)C (stereo unspecified) in this assay. label 0

Recorded call for "O=C(Nc1cccnc1)c1ccc2c(c1)OCO2" ? label 0

Give the logged outcome of this assay for the following compound: "CC(=O)Nc1cccc(-c2csc(Nc3cccc(C)n3)n2)c1" label 0

Called result for "CCOC(=O)c1cc(C)sc1NC(=O)C1CCC1" label 0

Dear colleague, could you share the recorded outcome for O=C(Nc1nc(-c2ccncc2)cs1)C1COc2ccccc2O1 (stereo unspecified) when you have a moment? label 1

----------
# Target or test system: Cytochrome P450 2C9 (Homo sapiens)
# Measurement protocol: blockers of cytochrome P450 2C9 activity – biochemical, luminescence, ADME assay, primary screen (AID 777)
# Applied conditions: CYP2C9 Supersomes, luciferin-H conversion, at 5 µM, active compounds read high
Among all 96,000 compounds or so, about 19,000 (20%) were called active. A selection follows.
Readout name: inhibition (%)
Hi! Could you send only the number? It should be in %, unit omitted.

Lab book: inhibition of "CCCCCN(C(=O)NC(=O)Nc1ccccc1OC)S(C)(=O)=O" noted as 68.3

Documented inhibition of "CC1(C)CC(=O)C=C(NCCCNC2CCCCC2)C1" : 1

response.value for "COCc1cc(C)nc2sc(C(=O)NC3CCCCC3)c(N)c12" (field: inhibition) = 4.7

Form field inhibition, entry Cc1nc(NC2=NC(C(=O)Nc3ccc(Cl)cc3)CC(=O)N2)nc2ccccc12 (stereo not given) : 1.6

For reference, reported inhibition for "Cc1ccc(O)c(CNc2nc3ccccc3n2C)c1" stands at 21.9

Entry CCCCCCCC(=O)NC(Nc1ccccc1OC)C(Cl)(Cl)Cl (stereo not given) , inhibition reported as 12.1

Item: "CCCCn1c(CN2CCN(CCO)CC2)nc2ccccc21" | inhibition: 1.5

For record "CCCCCN(C(=O)NC(=O)Nc1ccccc1C)S(C)(=O)=O" the listed inhibition is 32.9

The reported value for "CCN(CC(=O)Nc1ccc2c(c1)OCCO2)Cc1cc(=O)oc2cc(C)c(C)cc12" in terms of inhibition is 93

The recorded inhibition for "Cc1ccc(-c2noc(CSc3nnc(-c4cccs4)n3C)n2)cc1" is 13

The reported inhibition of the compound "CN(C)CCCNc1c2c(c(C#N)c3nc4ccccc4n13)CCC2" was 7.3

Please fill in: inhibition reported for "CC(C)NC(=O)CCCn1c(=S)[nH]c2cc3c(cc2c1=O)OCO3" = 12.3

Measured inhibition of C/C(=N\O)C1(C)N(O)C(C)(C)C(c2ccc(Br)cc2)=[N+]1[O-] (stereo not given) : -4.6

Kindly note the recorded inhibition for N#CC1=C(N)Oc2cc(O)ccc2C1C1CCCCC1 (stereo not given) , which is 44.8

GET /value?item= CC(=O)NCCc1ccc(S(=O)(=O)N(C)C2CCS(=O)(=O)C2)cc1 (stereo not given) &field=inhibition returns 3.1

inhibition in this record for "Cc1ccc2[nH]c(=O)c(-c3nc4c(C)cccn4c3NCc3ccco3)cc2c1" : 13

GET /value?item= "O=c1[nH]c(CCl)nc2cc(-c3ccc(Cl)cc3)sc12" &field=inhibition returns 17.9

The recorded inhibition for "Cn1cc(CCC(=O)NCc2ccc3c(c2)OCO3)c2ccccc21" is -124

Just so you know, measured inhibition for "Cc1ccc(-c2noc(CSc3nnc(-c4ccccc4)n3C)n2)cc1" came out at 88.3

Notebook: "COc1ccc(OC)c(/C=N/NC(=O)CSc2nnc(C)n2-c2ccccc2)c1" , inhibition read as 20.2

Looking up "Cc1csc2ncc(C(=O)N(Cc3ccccc3)c3ccccn3)c(=O)n12" , I see its inhibition listed as 6.4

Reported inhibition for "COc1ccc(C(=O)Cc2cnn(-c3ccccc3)c2)c(O)c1" was 5

Lab book: inhibition of CCCn1nnc2sc3c(c2c1=O)CCC(C)C3 (stereo not given) noted as 10.3

# compound "O=C(NCCCN1CCN(C2CCCCC2)CC1)Nc1ccccc1C(F)(F)F" ; its inhibition = 0.7

Noted for "Cc1ccc(-c2noc(CSc3nnnn3-c3ccccc3)n2)cc1" : its inhibition reads 85.5

In plain terms, "Cc1nc2ccccc2c(-c2ccccc2)c1C(=O)c1ccccc1" has a documented inhibition of 19.7

Just so you know, measured inhibition for "C=CCN(N=Nc1cccc([N+](=O)[O-])c1)c1cccc([N+](=O)[O-])c1" came out at 46.4

compound "C/C(N)=C(\C#N)C(=O)NCCc1ccccn1" , inhibition observed: -7.1

Briefly, inhibition measured for "COc1cccc(-c2nc(S(=O)(=O)c3ccccc3)c(N3CCOCC3)o2)c1" : 27.5

"Cc1ccc(C)c(N2CCN(C(=O)CCCCn3c(=O)[nH]c4ccccc4c3=O)CC2)c1" yielded inhibition of 61.9

COc1ccc(C(C#N)Nc2ccccc2C)cc1 (stereo not given) has a reported inhibition of 4.4

Consider "Cn1cc([N+](=O)[O-])c(C(=O)Nc2ccc3c(c2)OCCO3)n1" . Its measured inhibition is 8.7

Lab note: measured inhibition of C=CCn1c(SCc2c(C)noc2C)nc2sc3c(c2c1=O)CCC(C)C3 (stereo not given) was 92.7

So, "O=C(COc1ccc2c(C(F)(F)F)cc(=O)oc2c1)Nc1ccc2c(c1)OCCO2" ? Its inhibition was 22.6

Briefly, inhibition measured for "Cc1ccc(Nc2nc(-c3sc(NC(=O)c4ccccc4)nc3C)cs2)cc1" : 3.8

Looking up "Cc1c2cnn(-c3ccccc3)c(=O)c2c(C)n1CCCC(=O)N1CCN(C)CC1" , I see its inhibition listed as -0.9

Sure, the documented inhibition for "CN(C(=O)CSc1nnnn1-c1ccccc1)C1CCCCC1" is 36.3

Looking up CCOC1CS(=O)(=O)CC1OCC (stereo not given) , I found its inhibition recorded as -5.4

Reported inhibition of COc1ccc(C2C(C#N)=C(N)Oc3cc(N)ccc32)cc1OC (stereo not given) : 85.7

So, Cc1ccc(-c2nnc(SC(C)C#N)n2N)cc1 (stereo not given) ? Its inhibition was 1.1

Quick note, inhibition for "CN1/C(=c2/s/c(=C3/C(=O)N(c4ccccc4)NC3=Nc3ccccc3)n(C)c2=O)C(C)(C)c2ccccc21" landed at 19

According to the records, this compound "CC(=O)OCc1cc(=O)n(C)c(=O)n1C" displays inhibition of -5.9

The measured inhibition associated with COC(=O)C1C(=O)CC(C)(O)C(C(=O)OC)C1c1ccc2c(c1)OCO2 (stereo not given) reads 5.1

Please fill in: inhibition reported for COc1cc(C2C(C#N)=C(N)Oc3n[nH]c(-c4ccccn4)c32)cc(OC)c1OC (stereo not given) = -6.2

Sample "COc1cccc(-n2c(SCC(=O)NC3CCCCC3)nc3n[nH]c(C)c3c2=N)c1" ; inhibition observed: 19.4
